# target.or.system: TbrCatL (Trypanosoma brucei rhodesiense, UniProt Q95PM0)
# Construct: Conor Caffrey (University of California San Diego)
# Sequence (Q95PM0 entry or part of it): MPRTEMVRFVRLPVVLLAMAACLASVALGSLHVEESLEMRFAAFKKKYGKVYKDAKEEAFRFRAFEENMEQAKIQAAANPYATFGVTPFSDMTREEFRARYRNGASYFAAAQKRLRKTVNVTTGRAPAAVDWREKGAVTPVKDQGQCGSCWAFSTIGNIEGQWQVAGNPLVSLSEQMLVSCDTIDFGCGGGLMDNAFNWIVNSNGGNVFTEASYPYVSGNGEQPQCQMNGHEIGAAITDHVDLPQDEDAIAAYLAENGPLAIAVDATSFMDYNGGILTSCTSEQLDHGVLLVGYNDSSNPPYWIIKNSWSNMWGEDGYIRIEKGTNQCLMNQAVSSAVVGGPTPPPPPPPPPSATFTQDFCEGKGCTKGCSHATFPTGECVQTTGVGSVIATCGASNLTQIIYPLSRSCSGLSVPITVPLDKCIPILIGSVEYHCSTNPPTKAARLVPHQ
# protocol: TbrCatL enzymatic inhibition assay (cleavage of fluorogenic substrate Z-FR-AMC);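 note: at 5 µM compound concentration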
# Assay type: biochemical
# assay.context: 0’ (pre-incubation time); sheet "Screening results"
# Procedure: Allison Doak and Prof. Brian Shoichet (University of California San Francisco, San Francisco, CA, USA) and Prof. Conor Caffrey (University of California San Diego, San Diego, CA, USA) generously provided recombinant cruzain and TbrCatL, respectively. In vitro activity of proteases cruzain and TbrCatL was assayed as previously described. Briefly, enzyme activity was measured by monitoring the cleavage of the fluorogenic substrate Z-Phe-Arg-amidomethylcoumarin (Z-FR-AMC) at 25 °C. […]
Consider the following compounds; for each one, report its TbrCatL 0’ Inhibition.
One number for each entry, in %.

Here are 3 compounds together with their reported answers.
{"columns": ["compound", "TbrCatL 0’ Inhibition / %"],
 "data": [
  ["COc1cccc(CC(=O)N2CCC(n3c(C)nc4ccc(F)cc43)CC2)c1 [MMV020081]", 1.6],
  ["CCOc1ccc(-c2nc(CNCCc3ccc(F)cc3)cs2)cc1 [MMV688938]", 3],
  ["O=C1[C@@H](Oc2ccccc2)[C@@H](c2ccc(Cl)cc2)N1CCn1cnc2c(NCc3ccccc3)ncnc21 [MMV688352]", 5]
]}

# batch size: 6; output TbrCatL 0’ Inhibition per entry
1. COc1ccc(CCN2CCC(NCc3cccc(N(C)C)c3)CC2)cc1 [MMV011511]
2. CCc1ccc(S(=O)(=O)Nc2cc(CN3CCN(CCC(C)C)CC3)ccc2C)cc1 [MMV688124]
3. COC(=O)c1cccc2oc(-c3cccc(OC)c3NC(=O)c3cc(-c4ccccc4)on3)nc12 [MMV676186]
4. O=C1O[C@@H](CO)CN1c1cc(F)c(C2=CCN(Cc3ccccc3)CC2)c(F)c1 [MMV687729]
5. CN1CCN(c2nccc3[nH]c(-c4cccc(F)c4)cc23)CC1 [MMV393144]
6. Nc1nccc2ccc(-c3ccc4nccn4c3)cc12 [MMV023233]

Given back:
0.4
-3.3
-3.7
-0.7
-8.5
0.7

====

# target.or.system: cruzain (Trypanosoma cruzi, UniProt P25779);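 note: at 5 µM compound concentration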
# Sequence (P25779 123-337 limits assumed): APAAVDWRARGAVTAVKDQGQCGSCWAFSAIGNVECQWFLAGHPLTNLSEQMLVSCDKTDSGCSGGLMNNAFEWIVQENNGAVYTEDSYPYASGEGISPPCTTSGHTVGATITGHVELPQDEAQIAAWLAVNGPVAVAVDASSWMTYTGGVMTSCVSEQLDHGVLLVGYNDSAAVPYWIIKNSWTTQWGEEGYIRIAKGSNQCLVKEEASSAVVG
# protocol: biochemical
# assay.context: 10’ (pre-incubation); sheet Screening results
measurement.label: Cruzain Inhibition 10’

{"columns": ["compound", "observed"],
 "data": [
  ["CC(C)N=c1cc2n(-c3ccc(Cl)cc3)c3ccccc3nc-2cc1Nc1ccc(Cl)cc1 [MMV687800]", "10%"]
]}

# batch size: 4; output Cruzain Inhibition 10’ per entry
1. Cc1nnc(NC(=O)c2cn(-c3ccccc3)nc2-c2ccccc2C)o1 [MMV020320]
2. CC(C)(C(=O)Nc1ccc(F)cc1)n1cc(-c2ccccc2F)cn1 [MMV687239]
3. COc1ccc(Cl)cc1NC(=O)CN(C)C(=O)c1cnn(-c2ccccc2)n1 [MMV020710]
4. O=C(c1ccc(F)cc1)N(CCNc1ccccc1)c1ccccc1 [MMV676204]

Given back:
1. 2.2%
2. -3%
3. -36%
4. 4.7%

====

# target.or.system: cruzain (Trypanosoma cruzi, UniProt P25779);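 note: at 5 µM compound concentration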
# protocol: biochemical
# assay.context: 0’ (no pre-incubation); sheet Screening results
measurement.label: Cruzain Inhibition 0’
Please state the number and follow it with the unit.

# batch size: 4; output Cruzain Inhibition 0’ per entry
1. COc1ccc(Cl)cc1NC(=O)CN(C)C(=O)c1cnn(-c2ccccc2)n1
2. CC1CCCCN1C(=O)NCCc1coc(-c2ccc(F)cc2)n1 (stereo not drawn)
3. CCc1nc2ccccc2n1CC(O)COc1cc(C)ccc1Cl (stereo not drawn)
4. Cc1cccc(Cn2ccc(NC(=O)c3ccc4c(c3)OCO4)n2)c1

Given back:
-11%
15%
4.5%
8%

# batch size: 4; output Cruzain Inhibition 0’ per entry
1. COc1cc2ncnc(NC3CCN(Cc4ccccc4)CC3)c2cc1OC
2. O=C(NCc1ccoc1)N1CCN(Cc2ccc3c(c2)OCO3)CC1
3. COc1ccc(C2CC(c3cccs3)=NN2C(=O)c2ccco2)cc1OC (stereo not drawn)
4. CC[C@@H]([C@H](C)O)n1ncn(-c2ccc(N3CCN(c4ccc(OC[C@@H]5CO[C@@](Cn6cncn6)(c6ccc(F)cc6F)C5)cc4)CC3)cc2)c1=O

Given back:
8%
-7%
6.6%
9%

Asked: Please list Cruzain Inhibition 0’ recorded for the molecule Cc1cccc(NC(=O)c2cc(S(=O)(=O)N(C)c3ccc(F)cc3)ccc2Cl)n1
Given back: 3.7%

====

# target.or.system: TbrCatL (Trypanosoma brucei rhodesiense)
# Construct: Conor Caffrey (University of California San Diego)
# protocol: TbrCatL enzymatic inhibition assay (cleavage of fluorogenic substrate Z-FR-AMC);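 note: at 5 µM compound concentration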
# Type: biochemical
# assay.context: 0’ (pre-incubation time); Pathogen Box screening results
Consider the following molecules; for each one, report its TbrCatL Inhibition 0’.
One number for each entry, in %.

{"columns": ["molecule", "TbrCatL Inhibition 0’ / %"],
 "data": [
  ["NCC(c1cccs1)S(=O)(=O)c1ccccc1 (centres unmarked)", -0.6],
  ["c1ccc(-c2nc(NC3CCCCC3)cc(C3CC3)n2)nc1", -1.4]
]}

# batch size: 3; output TbrCatL Inhibition 0’ per entry
1. COc1cccc(NC(=O)c2c(NC(=O)c3cccnc3)sc3c2CCC3)c1
2. Cc1nc(-c2ccccn2)nc(N(C)CCc2ccccc2)c1Cl
3. CCc1ccccc1-n1c(C)cn2c3c(=O)n(C(C(=O)OC)C(C)C)c(=O)n(C)c3nc12 (centres unmarked)

Given back:
-8.5
-5.5
-16

====

# target.or.system: TbrCatL (Trypanosoma brucei rhodesiense, UniProt Q95PM0)
# Construct: Conor Caffrey (University of California San Diego)
# protocol: TbrCatL enzymatic inhibition assay (cleavage of fluorogenic substrate Z-FR-AMC);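 note: at 5 µM compound concentration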
# Format: biochemical
# assay.context: 0’ (no pre-incubation); sheet Screening results
measurement.label: TbrCatL Inhibition 0’ (%)
Answers are plain numbers, in %.

Here are 8 compounds together with their reported answers.
{"columns": ["compound", "target.or.system", "TbrCatL Inhibition 0’ [%]"],
 "data": [
  ["CNc1nnc(Sc2cnn(-c3ccccc3)c(=O)c2Cl)s1 [MMV688763]", "TbrCatL (Trypanosoma brucei rhodesiense, UniProt Q95PM0)", 7.5],
  ["CC(=O)NCC1CN(c2ccc(-c3ccc(CO)cc3)c(F)c2)C(=O)O1 (stereo not drawn) [MMV688508]", "TbrCatL (Trypanosoma brucei rhodesiense, UniProt Q95PM0)", -0.7],
  ["FC(F)(F)c1nnc2ccc(Cl)nn12 [MMV069458]", "TbrCatL (Trypanosoma brucei rhodesiense, UniProt Q95PM0)", 4],
  ["O[C@@H](c1cc(C(F)(F)F)nc2c(C(F)(F)F)cccc12)[C@H]1CCCCN1 [MMV000016]", "TbrCatL (Trypanosoma brucei rhodesiense, UniProt Q95PM0)", 2.4],
  ["CC1(C)OB(O)c2ccc(C3=NOC(c4cc(Cl)c(F)c(Cl)c4)(C(F)(F)F)C3)cc21 (stereo not drawn) [MMV687775]", "TbrCatL (Trypanosoma brucei rhodesiense, UniProt Q95PM0)", -0.5],
  ["CCOc1ccc2cc(-c3nn(CC4CCN(C)CC4)c4ncnc(N)c34)ccc2c1 [MMV688854]", "TbrCatL (Trypanosoma brucei rhodesiense, UniProt Q95PM0)", 2.7],
  ["CS(=O)(=O)c1ccccc1C(=O)N(Cc1ccccc1)c1ccccc1 [MMV688798]", "TbrCatL (Trypanosoma brucei rhodesiense, UniProt Q95PM0)", 1.5],
  ["COc1ccc(Cl)cc1NC(=O)CN(C)C(=O)c1cnn(-c2ccccc2)n1 [MMV020710]", "TbrCatL (Trypanosoma brucei rhodesiense, UniProt Q95PM0)", -10]
]}

# batch size: 6; output TbrCatL Inhibition 0’ per entry
1. O=C(NCc1nnc2n1CCCCC2)c1ccc(-c2ccc(F)cc2)o1 [MMV688796]
2. O=C(c1n[nH]c2c1CCCC2)N1CCN(Cc2ccc3c(c2)OCO3)CC1 [MMV676389]
3. COC(=O)c1c(NC(=O)c2c(F)c(F)c(F)c(F)c2F)sc2c1CCCCC2 [MMV461553]
4. O=S(=O)(c1ccc(Cl)cc1)N1CCN(C(=S)NCc2ccco2)CC1 [MMV000858]
5. O=C(Nc1ccnc(-c2cccnc2)n1)c1cc(C(F)(F)F)cc(C(F)(F)F)c1 [MMV019838]
6. CS(=O)(=O)c1ccc(C(=O)N(CC2CCCO2)c2nc3ccccc3s2)cc1[N+](=O)[O-] (stereo not drawn) [MMV688761]

Given back:
7
-12
-16
0.9
-8
-0.9

====

# target.or.system: TbrCatL (Trypanosoma brucei rhodesiense, UniProt Q95PM0)
# Construct: Conor Caffrey (University of California San Diego)
# protocol: TbrCatL enzymatic inhibition assay (cleavage of fluorogenic substrate Z-FR-AMC);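 note: at 5 µM compound concentration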
# Type: biochemical
# assay.context: 0’ (no pre-incubation); sheet Screening results
Consider the following compounds; for each one, report its TbrCatL Inhibition 0’.
Answers are plain numbers, in %.

{"columns": ["compound", "TbrCatL Inhibition 0’ / %"],
 "data": [
  ["Cc1ccc2cc(C3NC(=O)c4ccccc4N3)c(Cl)nc2c1 (stereo not shown) [MMV019807]", 5],
  ["c1ccc(-c2[nH]c3ccccc3c2C(c2ccccn2)N2CCCC2)cc1 (stereo not shown) [MMV688762]", 3.2],
  ["CC(C(=O)Nc1ccc2oc(-c3ccncc3)nc2c1)c1ccccc1 (stereo not shown) [MMV688471]", 26]
]}

Asked: Give the observed TbrCatL Inhibition 0’ of COc1cc(N[C@@H](C)CCCN)c2ncccc2c1 [MMV000023] for TbrCatL (Trypanosoma brucei rhodesiense, UniProt Q95PM0).
Given back: 9
